# Test: Clearance in patient with EGFR TKI-resistant NSCLC at 20 to 240 mg, po qd
# Assay type: ADME, organism-based
# Measurement context: human, in vivo
Outcome measure: CL/F (mL/min)
Provide the reading as a plain figure in mL/min.

Q. What value of measured CL/F is listed for C=CC(=O)Nc1cc(Nc2nccc(-c3cn(C)c4ccccc34)n2)c(OC)cc1N(C)CCN(C)C [OSIMERTINIB] ?
A. 237
